- Test system: human erythrocytes
- details: pH 7.4
assay-metric: Amount of complex entering erythrocytes (n.mole)

chemical_smiles=Cc1c([O-])c(=O)ccn1C(C)C.Cc1c([O-])c(=O)ccn1C(C)C.Cc1c([O-])c(=O)ccn1C(C)C.[Fe+3] assay_metric="Amount of complex entering erythrocytes" u=n.mole numeric_result=22
chemical_smiles=CCCn1ccc(=O)c([O-])c1C.CCCn1ccc(=O)c([O-])c1C.CCCn1ccc(=O)c([O-])c1C.[Fe+3] assay_metric="Amount of complex entering erythrocytes" u=n.mole numeric_result=53
chemical_smiles=CCCn1cccc([O-])c1=O.CCCn1cccc([O-])c1=O.CCCn1cccc([O-])c1=O.[Fe+3] assay_metric="Amount of complex entering erythrocytes" u=n.mole numeric_result=710
chemical_smiles=Cn1cccc([O-])c1=O.Cn1cccc([O-])c1=O.Cn1cccc([O-])c1=O.[Fe+3] assay_metric="Amount of complex entering erythrocytes" u=n.mole numeric_result=60

----------
- Test system: human erythrocytes
- details: pH 7.4
assay-metric: Amount of complex entering erythrocytes (n.mole)

chemical_smiles=CCn1ccc(=O)c([O-])c1C.CCn1ccc(=O)c([O-])c1C.CCn1ccc(=O)c([O-])c1C.[Fe+3] u=n.mole numeric_result=20
chemical_smiles=Cc1c([O-])c(=O)ccn1C.Cc1c([O-])c(=O)ccn1C.Cc1c([O-])c(=O)ccn1C.[Fe+3] u=n.mole numeric_result=25
chemical_smiles=CC(C)n1cccc([O-])c1=O.CC(C)n1cccc([O-])c1=O.CC(C)n1cccc([O-])c1=O.[Fe+3] u=n.mole numeric_result=770
chemical_smiles=CCCCn1ccc(=O)c([O-])c1C.CCCCn1ccc(=O)c([O-])c1C.CCCCn1ccc(=O)c([O-])c1C.[Fe+3] u=n.mole numeric_result=1630

----------
- test-description: Partition between n-octanol and aqueous tris hydrochloride (Kpart)
- Assay type: physicochemical
- details: n-octanol/tris hydrochloride, 100 µM, pH 7.4
# Partition Coefficient, Kpart, Iron complex [Fe^III-(compound)3] per entry
assay-metric: Partition Coefficient, Kpart, Iron complex [Fe^III-(compound)3]

chemical_smiles=Cc1c([O-])c(=O)ccn1C.Cc1c([O-])c(=O)ccn1C.Cc1c([O-])c(=O)ccn1C.[Fe+3] numeric_result=0.05
chemical_smiles=CC(C)n1cccc([O-])c1=O.CC(C)n1cccc([O-])c1=O.CC(C)n1cccc([O-])c1=O.[Fe+3] numeric_result=13.50
chemical_smiles=Cc1c([O-])c(=O)ccn1C(C)C.Cc1c([O-])c(=O)ccn1C(C)C.Cc1c([O-])c(=O)ccn1C(C)C.[Fe+3] numeric_result=0.20
chemical_smiles=CCCCn1ccc(=O)c([O-])c1C.CCCCn1ccc(=O)c([O-])c1C.CCCCn1ccc(=O)c([O-])c1C.[Fe+3] numeric_result=7.70
chemical_smiles=CCCn1cccc([O-])c1=O.CCCn1cccc([O-])c1=O.CCCn1cccc([O-])c1=O.[Fe+3] numeric_result=6.20
chemical_smiles=Cn1cccc([O-])c1=O.Cn1cccc([O-])c1=O.Cn1cccc([O-])c1=O.[Fe+3] numeric_result=0.10
chemical_smiles=CCn1ccc(=O)c([O-])c1C.CCn1ccc(=O)c([O-])c1C.CCn1ccc(=O)c([O-])c1C.[Fe+3] numeric_result=0.03

----------
- test-description: Partition between n-octanol and aqueous tris hydrochloride (Kpart)
- Assay type: physicochemical
- details: n-octanol / 20 mM tris hydrochloride pH 7.4, 20° C., 10^-4 M; read-out: Partition Coefficient, Kpart, Free Compound (converted)
- Description: Acid washed glassware is used throughout and, following mixing of 5 ml of the 10^-4 M aqueous solution with 5 ml of n-octanol for 1 minute, the aqueous n-octanol mixture is centrifuged at 1,000 g for 30 seconds. The two resulting phases are separated for a concentration determination by spectrophotometry on each.
# logD at 100 µM per entry
assay-metric: logD at 100 µM

compound=Cc1c(O)c(=O)ccn1C(C)C numeric_result=-0.0223
compound="CCCCn1ccc(=O)c(O)c1C [1-butyl-3-hydroxy-2-methylpyrid-4-one, 1-Butyl-3-hydroxy-2-methylpyrid-4-one]" numeric_result=0.724
compound="CCn1ccc(=O)c(O)c1C [1-ethyl-3-hydroxy-2-methylpyrid-4-one, 1-Ethyl-3-hydroxy-2-methylpyrid-4-one]" numeric_result=-0.398

----------
- test-description: Partition between n-octanol and aqueous tris hydrochloride (Kpart)
- Type: physicochemical
- details: n-octanol/tris hydrochloride, pH 7.4
# logD at 100 µM per entry
assay-metric: logD at 100 µM

molecule="Cn1cccc(O)c1=O [3-hydroxy-1-methylpyrid-2-one]" numeric_result=-0.357
molecule="O=C1O[C@H]([C@@H](O)CO)C(O)=C1O [Fe^III ascorbate, iron (III) ascorbate, reference compound]" numeric_result=-2.82
molecule="Cc1c(O)c(=O)ccn1C [3-hydroxy-1,2-dimethylpyrid-4-one]" numeric_result=-0.678
molecule="CCn1cccc(O)c1=O [1-ethyl-3-hydroxypyrid-2-one]" numeric_result=-0.284
molecule="CC(C)n1cccc(O)c1=O [3-hydroxy-1-(1'-methylethyl)-pyrid-2-one, 3-hydroxy-1-(1'-methylethyl)pyrid-2-one]" numeric_result=0.491
molecule="CCCn1cccc(O)c1=O [3-hydroxy-1-propylpyrid-2-one]" numeric_result=-0.108

Reference for the values: patent US4550101A
